Where do the numbers come from? From PubChem BioAssay (NCI).

- measurement_description: NCI Yeast Anticancer Drug Screen. Data for the mec2-1 strain (AID 157)
- condition_description: S. cerevisiae mec2-1 strain, at 5.0 µM (retest, dose inferred, filed as 0.5), active compounds read high
The panel holds about 79,000 compounds, 15% with a hit somewhere; the sample as a whole holds those more often.
recorded_endpoint: growth inhibition (%)
Report only the number, with the unit % understood.

Study these solved cases before continuing.
[
  {
    "compound": "Cc1ccc(/C=C/C(=O)/C=C/c2ccc(C)o2)o1",
    "growth inhibition / %": 45
  },
  {
    "compound": "c1ccc2c(c1)ccc1c2ccc2sc3ccccc3[n+]21",
    "growth inhibition / %": 53
  },
  {
    "compound": "Cc1cccc2c(C(=O)CBr)cc(-c3ccc(Cl)cc3)nc12",
    "growth inhibition / %": 89
  },
  {
    "compound": "COc1ccc(/C=N/N=c2\\[nH][nH]/c(=N\\N=C\\c3ccc(OC)c4ccccc34)c3ccccc23)c2ccccc12",
    "growth inhibition / %": 0
  },
  {
    "compound": "CC(C)OC(=O)C1C=CCc2c(O)ccc(O)c21 (stereo not drawn)",
    "growth inhibition / %": 15
  },
  {
    "compound": "CCOC(=O)C(=O)NNc1ccccc1",
    "growth inhibition / %": 3
  },
  {
    "compound": "Cc1ccc([N+](=O)[O-])c2c(NCCCN(C)C)c3ccccc3nc12",
    "growth inhibition / %": 97
  },
  {
    "compound": "Oc1ccc(COCCBr)c2cccnc12",
    "growth inhibition / %": -2
  },
  {
    "compound": "C/C(=N\\Nc1n[nH]c(=S)n1N)c1c(O)cc(C)oc1=O",
    "growth inhibition / %": 3
  },
  {
    "compound": "C=C(CN(C)C)C(=O)c1ccccc1",
    "growth inhibition / %": 8
  }
]

If you can, please state the reported growth inhibition value of "NNc1nc(Nc2ccccc2)nc(Nc2ccccc2)n1" .
-5

If you can, please state the reported growth inhibition value of "S=C(Nc1ccc(Cl)c(Cl)c1)SC1CCCCC1" .
11

If you can, please state the reported growth inhibition value of COc1ccc2c(c1)C(Br)CCC(Br)C2=O (stereo not drawn) .
-48

###

- measurement_description: NCI Yeast Anticancer Drug Screen. Data for the mec2-1 strain (AID 157)
- condition_description: S. cerevisiae mec2-1 strain, at 5.0 µM (retest, dose inferred, filed as 0.5), active compounds read high
This is part of a sample that, as a whole, favours compounds with a hit. Of some 79,000 tested, about 15% had one in any assay.
A collection of compounds and their measured growth inhibition
Report only the number, with the unit % understood.

If you can, please state the reported growth inhibition value of CN(/N=C/C(O)C(O)C(O)CO)c1ccccc1 (stereo not given) .
3

If you can, please state the reported growth inhibition value of N#CSCN1C(=O)C2CC=CCC2C1=O (stereo not given) .
2

If you can, please state the reported growth inhibition value of "Fc1cccc(NC(=S)SCc2ccco2)c1" .
-1

###

- measurement_description: NCI Yeast Anticancer Drug Screen. Data for the sgs1 mgt1 strain (AID 161);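 also: 0% = growth of cultures given vehicle only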
- condition_description: S. cerevisiae sgs1 mgt1 strain, at 5.0 µM (retest, dose inferred, filed as 0.5), active compounds read high
The panel holds about 79,000 compounds, 15% with a hit somewhere; the sample as a whole holds those more often.
A collection of compounds and their measured growth inhibition
Report only the number, with the unit % understood.

Study these solved cases before continuing.
[
  {
    "compound": "Nc1nc(Cl)cc(Nc2ccc(Cl)c(Cl)c2)n1",
    "number": -4
  },
  {
    "compound": "N#C/C(=C1C=C/C(=N/O)c2ccccc2/1)c1ccc(Cl)cc1",
    "number": 1
  },
  {
    "compound": "CCOC(=O)c1sc2[n+](c1C)C(=O)/C(=C/c1ccc([N+](=O)[O-])cc1)S2",
    "number": 16
  }
]

If you can, please state the reported growth inhibition value of "NC(=S)N1N=C2c3ccccc3CCC[C@H]2[C@@H]1c1ccccc1" .
21

If you can, please state the reported growth inhibition value of "Nc1c(NCc2ccccc2)ccc2ncccc12" .
-7

If you can, please state the reported growth inhibition value of "CC(C)(C)NCc1cc(Nc2ccnc3cc(Cl)ccc23)cc(-c2ccc(Cl)cc2)c1O" .
-5
